# Tested on: IGROV1 ovarian
# Assay protocol: NCI tumour cell line growth inhibition, 48 h; in the data active = GI50 below about 0.43 µM; inactive = the rest
# valid calls are 1.0 for active, 0.0 for inactive; nothing else

Here are 4 compounds together with their reported answers.
CN(CCCNC(=O)Cc1ccc2ccc3cccc4ccc1c2c34)CCCNc1cc(-c2ccc3ccccc3c2)nc2ccccc12 :: 0.0
CC(=O)/C=C/c1ccc(C#Cc2ccccc2)s1 :: 0.0
O=C(COc1ccc(/C=C2\CSc3ccccc3C2=O)cc1)Nc1nccs1 :: 0.0
COc1cc(C2=C(c3cn(C)c4ccccc34)COC2=O)cc(OC)c1OC :: 1.0

Then this compound:
*Q* Outcome? CCn1c(CO)nn(-c2cc(O[C@@H](C)C(F)(F)F)c(C(=O)Nc3c(F)cccc3Cl)cc2F)c1=O
*A* 1.0

Cited source: PubChem BioAssay (NCI)
